study.conditions: 338.15 K; 101.33 kPa; Liquid; Vibrating tube method
assay.metric: mass density (kg/m3)
Only the number, expressed in kg/m3, is required.

molecule | mass density / kg/m3
CCc1cccc[n+]1CC.O=S(=O)([N-]S(=O)(=O)C(F)(F)F)C(F)(F)F [1,2-diethylpyridin-1-ium bis((trifluoromethyl)sulfonyl)imide] | 1432.9
CCCCc1cccc[n+]1CC.O=S(=O)([N-]S(=O)(=O)C(F)(F)F)C(F)(F)F | 1373
CCCCCCCc1cccc[n+]1CC.O=S(=O)([N-]S(=O)(=O)C(F)(F)F)C(F)(F)F | 1286.7
CCCc1cccc[n+]1CC.O=S(=O)([N-]S(=O)(=O)C(F)(F)F)C(F)(F)F | 1410

State the recorded mass density for this entry: CCCCCc1cccc[n+]1CC.O=S(=O)([N-]S(=O)(=O)C(F)(F)F)C(F)(F)F
1335.8

What does the record list as mass density for CCCCCCc1cccc[n+]1CC.O=S(=O)([N-]S(=O)(=O)C(F)(F)F)C(F)(F)F ?
1309.7

I am curious: what mass density value has been reported for CCCCCCCCc1cccc[n+]1CC.O=S(=O)([N-]S(=O)(=O)C(F)(F)F)C(F)(F)F ?
1264

Where do the numbers come from? From the NIST ThermoML archive (doi:10.1016/j.fluid.2016.05.030).
